Biological target: T1, Biotinylated human DLL3 (human, UniProt Q9NYJ7 27-492, biotinylated (site not stated))
T1 construct: also called Delta-like ligand 3; Delta Like Canonical Notch Ligand 3
T1 sequence (looked up): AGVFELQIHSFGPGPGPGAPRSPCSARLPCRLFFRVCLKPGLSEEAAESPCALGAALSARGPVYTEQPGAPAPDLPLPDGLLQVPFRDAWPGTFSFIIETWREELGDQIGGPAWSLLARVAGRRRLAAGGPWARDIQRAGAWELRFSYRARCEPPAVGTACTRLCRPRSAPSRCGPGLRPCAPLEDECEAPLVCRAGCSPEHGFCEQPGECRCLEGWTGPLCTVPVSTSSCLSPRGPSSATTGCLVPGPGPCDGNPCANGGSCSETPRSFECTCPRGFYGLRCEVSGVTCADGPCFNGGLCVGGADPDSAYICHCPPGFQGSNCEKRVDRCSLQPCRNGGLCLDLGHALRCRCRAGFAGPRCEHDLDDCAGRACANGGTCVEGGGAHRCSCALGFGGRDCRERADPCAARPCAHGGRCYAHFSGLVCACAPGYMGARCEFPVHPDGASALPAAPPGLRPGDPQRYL
Assay: SPR, biotin-hDLL3 on SA chip
pKd: −log10 of the molar value. Bridge positions count the residues as written; N and C are the ends. Square brackets hold non-standard residues; d marks the D form. * marks the point of attachment. DOTA = O=C(O)CN1CCN(CC(=O)O)CCN(CC(=O)*)CCN(CC(=O)O)CC1; 1Nal = N[C@@H](Cc1cccc2ccccc12)C(=O)O; cisHyp = O=C(O)[C@@H]1C[C@H](O)CN1; NMeL = CN[C@@H](CC(C)C)C(=O)O; Chg = N[C@H](C(=O)O)C1CCCCC1; dNle = CCCC[C@@H](N)C(=O)O; Ahx = NCCCCCC(=O)O
Observable: pKd

As a guide, the following entries are already answered.
Binder | Observed Result
Ac-[Chg]SDCWK(DOTA)QWNCPFD-NH2 (disulfide 4-10; SMILES CC(=O)N[C@H](C(=O)N[C@@H](CO)C(=O)N[C@@H](CC(=O)O)C(=O)N[C@H]1CSSC[C@@H](C(=O)N2CCC[C@H]2C(=O)N[C@@H](Cc2ccccc2)C(=O)N[C@@H](CC(=O)O)C(N)=O)NC(=O)[C@H](CC(N)=O)NC(=O)[C@H](Cc2c[nH]c3ccccc23)NC(=O)[C@H](CCC(N)=O)NC(=O)[C@H](CCCCNC(=O)CN2CCN(CC(=O)O)CCN(CC(=O)O)CCN(CC(=O)O)CC2)NC(=O)[C@H](Cc2c[nH]c3ccccc23)NC1=O)C1CCCCC1) [Cpd #98] | 7.03
{DOTA-Ahx}-SDCW[NMeL]QWNCPFD-NH2 (disulfide 3-9) [Cpd #92] | 8.25
Ac-KSDCWLQWNCPFD[dK](DOTA)-NH2 (disulfide 4-10) [Cpd #83] | 7.49
Ac-MSDCWLQWNC[cisHyp]FD[dK](DOTA)-NH2 (disulfide 4-10) [Cpd #45] | 7.39

a: Ac-[dNle][dS]DC[1Nal]LQWNCPFD[dK](DOTA)-NH2 (disulfide 4-10) [Cpd #107]
b: Ac-MSDCWLQWNCPFD[dK](DOTA)-NH2 (disulfide 4-10) [Cpd #30]
QUERY: Which value of pKd is greater, the one for a or the one for b ? State your choice using its label.
RESULT: a
(a: 8.72, b: 8.07)
